This collection of values is drawn from PubChem BioAssay AID1159580.

test: chemical genetic growth profiling, strain panel (AID 1159580);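 further: tested at 20 µM; growth read once vehicle control cultures reached saturation at 30 °C; 1 = growth at the plate median or of vehicle wells; lower values mean less growth of the strain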; settings: S. cerevisiae deletion strains, growth OD, locus YDL005C, strain med2, hits give low values
In all, about 5,500 compounds went through this assay and about 2,000 (36%) were called active. About 18% were inconclusive and are not listed. Some of the results follow.
PROPERTY_LABEL: normalized growth
Give bare numbers.

These recorded examples may help you get a feel for the data.
COMPOUND	RECORDED_NUMBER
O=C(O)c1cccnc1C(=O)O	0.98
O=C(O)[C@H]1/C(=C/CO)O[C@@H]2CC(=O)N21	0.971
O=c1c(O)c(-c2ccccc2)oc2ccccc12	0.855

Need normalized growth for each of these compounds.
1. COc1ccc(CC(=O)c2ccc(O)cc2O)cc1
2. CC(=O)OCC1=C(C(=O)O)N2C(=O)[C@@H](NC(=O)CSc3ccncc3)[C@H]2SC1
3. NC(Cc1ccc(Cl)cc1)C(=O)O (stereo unspecified)
4. CC(=O)CCCCn1c(=O)c2c(ncn2C)n(C)c1=O
5. Cc1cc(O)c2c(c1)C(=O)c1cccc(O)c1C2=O

[1.01, 1.02, 0.989, 1.01, 1.01]
